Values from ChEMBL document CHEMBL3632483

target: D(2) dopamine receptor (Rattus norvegicus, UniProt P61169); assay: Displacement of [3H]spiperone from dopaminergic D2 receptor in rat striatum homogenates after 60 mins by liquid scintillation counting
Sequence (P61169 whole entry): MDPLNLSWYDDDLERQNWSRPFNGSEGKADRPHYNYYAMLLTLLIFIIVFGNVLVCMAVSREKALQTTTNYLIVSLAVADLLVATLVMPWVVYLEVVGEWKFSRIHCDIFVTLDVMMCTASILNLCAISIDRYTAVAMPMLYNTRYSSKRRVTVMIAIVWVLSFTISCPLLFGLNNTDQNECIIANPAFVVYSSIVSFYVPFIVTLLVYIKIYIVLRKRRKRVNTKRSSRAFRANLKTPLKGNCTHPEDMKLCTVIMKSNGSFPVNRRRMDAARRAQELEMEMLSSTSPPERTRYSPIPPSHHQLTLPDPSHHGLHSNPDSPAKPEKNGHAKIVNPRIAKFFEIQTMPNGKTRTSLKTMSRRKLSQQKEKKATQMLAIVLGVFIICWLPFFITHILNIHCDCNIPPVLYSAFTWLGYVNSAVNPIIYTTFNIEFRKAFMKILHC
pKi: −log10 of the molar value.
Would you please tag the item 1 when its pKi is 7 or above, and -1 when it is below?

Solved entries (count: 4):
{"columns": ["COMPOUND", "ANSWER LABEL"],
 "data": [
  ["FC(F)(F)c1cccc(N2CCN(CCCOc3ccc(-c4nc5ccccc5o4)cc3)CC2)c1", -1],
  ["Fc1ccc2c(C3CCN(CCCOc4cccc(-c5nc6ccccc6o5)c4)CC3)noc2c1", -1],
  ["Fc1ccc2c(C3CCN(CCCOc4ccc(CCc5nc6ccccc6o5)cc4)CC3)noc2c1", 1],
  ["c1ccc2c(c1)OCC(CN1CCN(CCCOc3ccc(-c4nc5ccccc5o4)cc3)CC1)O2 (stereo not given)", -1]
]}

Has Fc1ccc2c(C3CCN(CCCCOc4ccc(-c5nc6ccccc6o5)cc4)CC3)noc2c1 a recorded pKi greater than or equal to 7? -1

Please check the record c1ccc2oc(-c3ccc(OCCCN4CCN(c5nsc6ccccc56)CC4)cc3)nc2c1 and state if its pKi is at or above 7. -1

Is pKi at least 7? Consider Fc1ccc2c(C3CCN(CCCOc4ccc(Cc5nc6ccccc6o5)cc4)CC3)noc2c1 1

Check this compound for pKi at or above 7: CC(c1ccc(OCCCN2CCC(c3noc4cc(F)ccc34)CC2)cc1)c1nc2ccccc2o1 (stereo not given) 1

Would you say c1ccc(N2CCN(CCCOc3ccc(-c4nc5ccccc5o4)cc3)CC2)nc1 shows pKi at minimum 7? -1

Hi, just wondering whether O=C(c1ccc(F)cc1F)C1CCN(CCCOc2ccc(-c3nc4ccccc4o3)cc2)CC1 shows pKi of 7 or higher. -1

Threshold query (pKi >= 7) on c1ccc2oc(-c3ccc(OCCCN4CCC(c5nc6ccccc6o5)CC4)cc3)nc2c1 -1

====

target: 5-hydroxytryptamine receptor 2A (Rattus norvegicus, UniProt P14842)
Sequence (P14842 whole entry): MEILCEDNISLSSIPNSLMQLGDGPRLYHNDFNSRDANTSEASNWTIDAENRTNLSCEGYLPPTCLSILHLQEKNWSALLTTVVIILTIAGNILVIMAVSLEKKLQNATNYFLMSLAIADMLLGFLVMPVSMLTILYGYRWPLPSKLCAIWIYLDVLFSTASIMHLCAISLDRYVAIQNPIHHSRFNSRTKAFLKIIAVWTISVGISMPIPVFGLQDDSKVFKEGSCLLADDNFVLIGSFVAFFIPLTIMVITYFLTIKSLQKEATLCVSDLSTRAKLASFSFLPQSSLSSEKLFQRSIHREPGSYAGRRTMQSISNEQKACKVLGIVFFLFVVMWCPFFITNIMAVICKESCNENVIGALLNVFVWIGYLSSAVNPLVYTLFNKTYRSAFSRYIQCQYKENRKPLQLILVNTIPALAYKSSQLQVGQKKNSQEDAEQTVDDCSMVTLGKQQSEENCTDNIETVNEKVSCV
Threshold check on Ki: strictly below 40 nM is label 1; on or above 40 nM is label 0.

Lab note: confirm whether the reported Ki for this compound is below 40 nM, equality not counting. compound: Cc1ccc2oc(-c3ccc(OCCCN4CCC(c5noc6cc(F)ccc56)CC4)cc3)nc2c1 label 0

Confirm or reject: Ki of Fc1ccc2c(C3CCN(CCCOc4ccc(CCc5nc6ccccc6o5)cc4)CC3)noc2c1 lies strictly below 40 nM label 1

Is Ki of COc1cc(OCCCN2CCC(c3noc4cc(F)ccc34)CC2)ccc1-c1nc2ccccc2o1 strictly below 40 nM? label 0

Please determine if COc1ccccc1N1CCN(CCCOc2ccc(-c3nc4ccccc4o3)cc2)CC1 is below 40 nM in terms of Ki. label 1

hey, is Ki for Fc1ccc2c(C3CCN(CCCOc4ccc(-c5nc6ccccc6o5)c(F)c4)CC3)noc2c1 lower than 40 nM or not? label 1

Is Ki of CC(c1ccc(OCCCN2CCC(c3noc4cc(F)ccc34)CC2)cc1)c1nc2ccccc2o1 (configuration not stated) strictly below 40 nM? label 1

Lab log: compare recorded Ki with 40 nM; is it strictly lower for Fc1ccc2c(C3CCN(CCCOc4cccc(-c5nc6ccccc6o5)c4)CC3)noc2c1 ? label 0

====

molecular target: Voltage-gated inwardly rectifying potassium channel KCNH2 (Homo sapiens); test: Inhibition of human ERG expressed in HEK293 cells by whole-cell patch clamp method
Sequence (Q12809 whole entry): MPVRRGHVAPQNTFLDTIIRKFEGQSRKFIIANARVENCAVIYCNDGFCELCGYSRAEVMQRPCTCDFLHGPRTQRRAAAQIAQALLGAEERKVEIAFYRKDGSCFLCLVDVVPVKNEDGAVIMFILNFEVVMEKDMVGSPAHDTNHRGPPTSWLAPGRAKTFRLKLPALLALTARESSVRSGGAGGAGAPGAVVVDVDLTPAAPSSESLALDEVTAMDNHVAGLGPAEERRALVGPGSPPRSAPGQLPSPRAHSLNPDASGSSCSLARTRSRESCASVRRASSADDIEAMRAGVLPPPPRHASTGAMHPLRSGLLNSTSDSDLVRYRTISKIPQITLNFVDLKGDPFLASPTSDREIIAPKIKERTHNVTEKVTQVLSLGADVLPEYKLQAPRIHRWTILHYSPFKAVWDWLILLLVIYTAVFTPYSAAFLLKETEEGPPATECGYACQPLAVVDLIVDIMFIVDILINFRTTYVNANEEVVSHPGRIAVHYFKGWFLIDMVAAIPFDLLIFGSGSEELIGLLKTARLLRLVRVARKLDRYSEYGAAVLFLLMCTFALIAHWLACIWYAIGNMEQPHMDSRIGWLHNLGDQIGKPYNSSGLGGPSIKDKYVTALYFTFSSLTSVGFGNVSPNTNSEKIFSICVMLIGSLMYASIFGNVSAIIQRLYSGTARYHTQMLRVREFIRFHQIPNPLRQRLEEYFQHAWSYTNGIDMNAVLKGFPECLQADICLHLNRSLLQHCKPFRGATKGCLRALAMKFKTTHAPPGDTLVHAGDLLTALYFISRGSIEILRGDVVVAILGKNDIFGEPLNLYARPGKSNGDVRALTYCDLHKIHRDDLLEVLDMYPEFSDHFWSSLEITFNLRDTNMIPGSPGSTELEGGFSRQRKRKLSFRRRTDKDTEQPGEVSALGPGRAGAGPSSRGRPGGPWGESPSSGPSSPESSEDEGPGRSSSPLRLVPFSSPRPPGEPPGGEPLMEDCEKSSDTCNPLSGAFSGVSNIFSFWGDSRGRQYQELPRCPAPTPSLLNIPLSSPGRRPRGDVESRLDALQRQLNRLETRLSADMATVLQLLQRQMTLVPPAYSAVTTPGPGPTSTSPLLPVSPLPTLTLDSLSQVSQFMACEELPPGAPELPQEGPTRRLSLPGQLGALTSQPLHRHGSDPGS
VALUE TYPE: IC50 (µM)
// units = µM; emit number, no label

{"columns": ["COMPOUND", "UNITS SYMBOL", "QUANTITATIVE RESULT"],
 "data": [
  ["Fc1ccc2c(C3CCN(CCCOc4ccc(CCc5nc6ccccc6o5)cc4)CC3)noc2c1", "µM", 0.63]
]}

Field: next compound
Endpoint output: IC50 of CC(c1ccc(OCCCN2CCC(c3noc4cc(F)ccc34)CC2)cc1)c1nc2ccccc2o1 (configuration not stated) . Value? 1.01
